# maps each entry to its Soybean plant response rating
Tested on: soybean
Assay: Test B pre/postemergence soybean
Format: in vivo, Glycine max
Settings: Rate 62 g/ha, Postemergence; scale 0 to 10 (0 no effect, 10 complete control)

# COMPOUND, TARGET OR SYSTEM, Soybean plant response rating
measured = [
    ("CC1Cc2cccc(-n3c(=O)on(C(=O)N(c4ccc(F)cc4)C(C)C)c3=O)c2O1 (stereo not shown) [Compound 281]", "soybean", 2),
    ("C=CCCCn1c(=O)on(C(=O)N(c2ccc(F)cc2)C(C)C)c1=O [Compound 291]", "soybean", 1),
    ("CC[Si](C)(C)Cn1c(=O)on(C(=O)N(c2ccc(Cl)cc2)C(C)C)c1=O [Compound 460]", "soybean", 3),
    ("CCN(C(=O)n1oc(=O)n(C2CC2)c1=O)C1CCCCC1 [Compound 298]", "soybean", 0),
    ("CC(C)N(C(=O)n1oc(=O)n(C(C)C#N)c1=O)c1ccccc1 (stereo not shown) [Compound 435]", "soybean", 0),
    ("Cc1cccc(C(C)(C)C)c1-n1c(=O)on(C(=O)N(c2ccccc2)C(C)C)c1=O [Compound 303]", "soybean", 2),
    ("CC(C)N(C(=O)n1oc(=O)n(CO)c1=O)c1ccc(Cl)cc1 [Compound 457]", "soybean", 0),
    ("CC(C)N(C(=O)n1oc(=O)n(CCCCF)c1=O)c1ccc(F)cc1 [Compound 289]", "soybean", 2),
    ("CC(C)N(C(=O)n1oc(=O)n(Cc2ccccc2-c2ccccc2)c1=O)c1ccc(F)cc1 [Compound 313]", "soybean", 1),
    ("COC(OC)C(C)n1c(=O)on(C(=O)N(c2ccc(F)cc2)C(C)C)c1=O (stereo not shown) [Compound 471]", "soybean", 2),
]

---

System: velvetleaf
Experiment: Test B pre/postemergence velvetleaf
Assay type: in vivo, Abutilon theophrasti
Conditions: Preemergence, Rate 500 g/ha; scale 0 to 10 (0 no effect, 10 complete control)

# LINE NOTATION, TARGET OR SYSTEM, Velvetleaf plant response rating
rows = [
    ("CCN(Cc1ccccc1)C(=O)n1oc(=O)n(C(C)C)c1=O", "velvetleaf", 6),
    ("Cc1ccccc1-n1c(=O)on(C(=O)N(c2c(F)cccc2F)C(C)C)c1=O", "velvetleaf", 2),
    ("CC(C)N(C(=O)n1oc(=O)n(C(C)C)c1=O)c1ccccc1", "velvetleaf", 8),
    ("CC(C)N(C(=O)n1oc(=O)n(Cc2ccccc2Cl)c1=O)C1=CCCCC1", "velvetleaf", 5),
]

---

Tested on: velvetleaf
Assay: Test B pre/postemergence velvetleaf
Format: in vivo, Abutilon theophrasti
Conditions: Preemergence, Rate 500 g/ha; scale 0 (no effect) to 10 (complete control)
# maps each entry to its Velvetleaf plant response rating
ASSAY ENDPOINT: Velvetleaf plant response rating

# LINE NOTATION, MEASURED VALUE
records = [
    ("CN(C(=O)n1oc(=O)n(Cc2cccs2)c1=O)c1ccccc1", 0),
    ("COc1ccc(-n2c(=O)on(C(=O)N(c3ccc(F)cc3)C(C)C)c2=O)cc1", 0),
    ("CC(C)N(C(=O)n1oc(=O)n(-c2ccccc2OC(F)(F)F)c1=O)c1ccc(F)cc1", 0),
    ("CCN(Cc1ccccc1)C(=O)n1oc(=O)n(-c2ccccc2C)c1=O", 0),
    ("Cc1ccccc1-n1c(=O)on(C(=O)N(c2ccc(F)cc2)C2CC2)c1=O", 0),
]

Provenance of the data: patent US6737383B1
